MEASURED ENDPOINT: melting point

Form field melting point, entry COc1cc(-c2cc(=O)c3ccc(OCCBr)cc3o2)cc(OC)c1OC : 184 to 185 °C

====

MEASURED ENDPOINT: melting point

In the examples that follow, each entry is paired with its recorded melting point.
>  <COMPOUND>
ON=Cc1cc(Br)ccc1Cl

>  <melting point>
126 to 128 °C

$$$$
>  <COMPOUND>
Cc1cc(C)c2nc(C3CC3)n(-c3ccc(C(C(=O)O)C4CCCC4)cc3)c2n1 (stereo not drawn)

>  <melting point>
180 °C

$$$$
>  <COMPOUND>
CCOC(=O)C=C(Nc1cn[nH]c1)C(=O)OCC

>  <melting point>
69 to 71 °C

$$$$
>  <COMPOUND>
COc1ccc(C(=O)C(C(=O)Nc2ccccc2Cl)N2C(=O)c3ccccc3C2=O)cc1[N+](=O)[O-] (stereo not drawn)

>  <melting point>
203 to 205 °C

$$$$
>  <COMPOUND>
COC(=O)Cc1ccccc1NC(=S)NN(C)C

>  <melting point>
130 to 131 °C

$$$$

Sure, the documented melting point for NC(=O)C1CCN(c2cccc3c2OCCO3)CC1 is 194 °C

# melting point of CCC(CC)Oc1cc(C)nc(Oc2c(C)cc(C(=O)O)cc2C)c1C = 168 °C

For O=C(Cc1ccccc1C(F)(F)F)c1c(O)c2cccnc2n(-c2ccccc2)c1=O the compound record lists melting point as 140 to 142 °C

// recorded melting point for N#CCCNC(=O)c1cccc(-c2ccc3ccn(Cc4ccc(Cl)cc4Cl)c3c2)c1 : 153 to 154 °C

====

MEASURED ENDPOINT: melting point (°C)

a: O=C(O)c1ccc(-n2nnnc2S)cc1
b: COc1ccc(CN(C)CCc2ccc(NC(=O)c3cccc(C(=O)c4ccccc4)c3)cc2)cc1OC
Req: Quick one: lower melting point, a or b ? Identify your selection by its label.
Resp: b

====

MEASURED ENDPOINT: melting point

Examples from the recorded data:
>  <MOLECULE>
ClCCCOc1ccc(/C=C/c2nc3ccccc3o2)cc1

>  <melting point>
82 to 83 °C

$$$$
>  <MOLECULE>
CCOC(NC(=O)c1cccc(Cl)c1)C(N)=S (stereo not given)

>  <melting point>
136 to 137 °C

$$$$
>  <MOLECULE>
CCCCCCCCCC(=O)NC(=O)OCc1nc(C(C)C)c(Sc2cc(Cl)cc(Cl)c2)n1CC

>  <melting point>
102 to 103 °C

$$$$
>  <MOLECULE>
CC(C)n1nc(-c2cc(-c3ccn[nH]3)cnc2-c2ccccc2)ccc1=O

>  <melting point>
212 to 213 °C

$$$$
>  <MOLECULE>
CO[C@H]1O[C@@H](C)[C@@H]2[C@H](O)[C@H]3CCCC[C@@H]3C[C@H]12

>  <melting point>
123 to 124 °C

$$$$

# melting point (molecule: CCC12CC(Cl)C3C4CCC(=O)C=C4CCC3C1C(O)CC2=O (stereo not given) ) is 169 to 170 °C

Measured melting point, O=S(Cc1[nH]c2ccccc2c1Sc1ccccc1)c1ccccc1 (stereo not given) : 71 to 74 °C

The molecule listed as COc1cc2ncnc(NC3=CC(=O)C(N(C)C)=CC3=O)c2cc1OC has a reported melting point of 245 to 250 °C

melting point reported for this molecule Cc1cc2c(c(C(C)(C)C)c1)OC(=O)C2Cl (stereo not given) : 81 to 86 °C

For this molecule ( O=C(O)[C@H](Cc1ccccc1)NC(=S)Cc1ccccc1 ), measured melting point is 63 to 65 °C
